- PROCEDURE_DETAILS: Plasma protein binding (rapid equilibrium dialysis)
- Format: in vitro ADME, human
- RUN_CONDITIONS: human, plasma, 4-h incubation, 37° C., read-out: bound to plasma proteins
TEST_READOUT: fraction unbound at 4 h, 2 μg/mL

Given item CO[C@H]1/C=C\C=C(/C)C(=O)NC2=CC(=O)C(NCCCCCC[P+](c3ccccc3)(c3ccccc3)c3ccccc3)=C(C[C@@H](C)C[C@H](OC)[C@H](O)[C@@H](C)/C=C(\C)[C@@H]1OC(N)=O)C2=O , the value recorded as its fraction unbound at 4 h, 2 μg/mL is < 0.01

====

- PROCEDURE_DETAILS: in vitro
- RUN_CONDITIONS: human, Caco-2, Pexact, A > B
TEST_READOUT: Papp A→B at 90 min
Answer shape: numeric part, then the unit.

Given item CO[C@H]1/C=C\C=C(/C)C(=O)NC2=CC(=O)C(NCCCCCC[P+](c3ccccc3)(c3ccccc3)c3ccccc3)=C(C[C@@H](C)C[C@H](OC)[C@H](O)[C@@H](C)/C=C(\C)[C@@H]1OC(N)=O)C2=O , the value recorded as its Papp A→B at 90 min is 0.197 ×10⁻⁶ cm/s
